System: CD8+ T cells
Assay: In vitro immunogenicity: T-cell priming with aAPCs loaded with peptide/MHC and anti-CD28, pMHC multimer readout
Format: cell-based, human
Conditions: Table 10a, pMHC multimer readout after T-cell priming

- SUBSTANCE: "468 (QEQDVDLVQKY; listed as Homo sapiens) [compound 468]"
  Wells positive [%]: "+ (<20% = +)"
- SUBSTANCE: "506 (QESDLRLFL; listed as Homo sapiens) [compound 506]"
  Wells positive [%]: "+ (<20% = +)"
- SUBSTANCE: "476 (MEHPGKLLF; listed as Homo sapiens) [compound 476]"
  Wells positive [%]: "+ (<20% = +)"
- SUBSTANCE: "477 (VYEKNGYIYF; listed as Homo sapiens) [compound 477]"
  Wells positive [%]: "++++ (>=70% = ++++)"
- SUBSTANCE: "515 (AEGGKVPIKW; listed as Homo sapiens) [compound 515]"
  Wells positive [%]: "++ (20%-49% = ++)"
- SUBSTANCE: "492 (AEHNFVAKA; listed as Homo sapiens) [compound 492]"
  Wells positive [%]: "+ (<20% = +)"
- SUBSTANCE: "490 (TENRYCVQL; listed as Homo sapiens) [compound 490]"
  Wells positive [%]: "++ (20%-49% = ++)"
- SUBSTANCE: "463 (QEMQHFLGL; listed as Homo sapiens) [compound 463]"
  Wells positive [%]: "+ (<20% = +)"
- SUBSTANCE: "494 (KEITGFLLI; listed as Homo sapiens) [compound 494]"
  Wells positive [%]: "++ (20%-49% = ++)"
- SUBSTANCE: "459 (KEVDPAGHSY; listed as Homo sapiens) [compound 459]"
  Wells positive [%]: "++ (20%-49% = ++)"
- SUBSTANCE: "470 (EDAQGHIW; listed as Homo sapiens) [compound 470]"
  Wells positive [%]: "++ (20%-49% = ++)"
- SUBSTANCE: "508 (AESEDLAVHL; listed as Homo sapiens) [compound 508]"
  Wells positive [%]: "+ (<20% = +)"
- SUBSTANCE: "467 (FEYDFLLQRI; listed as Homo sapiens) [compound 467]"
  Wells positive [%]: "+ (<20% = +)"
- SUBSTANCE: "512 (AEPLVGQRW; listed as Homo sapiens) [compound 512]"
  Wells positive [%]: "++++ (>=70% = ++++)"
- SUBSTANCE: "469 (SEAFPSRAL; listed as Homo sapiens) [compound 469]"
  Wells positive [%]: "+++ (50%-69% = +++)"
- SUBSTANCE: "461 (MEVDPIGHVYIF; listed as Homo sapiens) [compound 461]"
  Wells positive [%]: "+ (<20% = +)"
- SUBSTANCE: "518 (FELPTGAGL; listed as Homo sapiens) [compound 518]"
  Wells positive [%]: "++ (20%-49% = ++)"
- SUBSTANCE: "504 (KESQLPTVM; listed as Homo sapiens) [compound 504]"
  Wells positive [%]: "++ (20%-49% = ++)"
- SUBSTANCE: "497 (GEGAYGKVF; listed as Homo sapiens) [compound 497]"
  Wells positive [%]: "+++ (50%-69% = +++)"
- SUBSTANCE: "489 (SEYADTHYF; listed as Homo sapiens) [compound 489]"
  Wells positive [%]: "+++ (50%-69% = +++)"
- SUBSTANCE: "487 (LEMPHYSTF; listed as Homo sapiens) [compound 487]"
  Wells positive [%]: "+++ (50%-69% = +++)"
- SUBSTANCE: "496 (AEIGEGAYGKVF; listed as Homo sapiens) [compound 496]"
  Wells positive [%]: "++ (20%-49% = ++)"
